Tested on: HOP-62
Test Name: NCI tumour cell line growth inhibition, 48 h
Calls of active or inactive are those of the source. No stated cut-off is given here; in the data, active = GI50 up to about 1.1 µM and inactive = higher.
// allowed return values: active, inactive

Check out these entries, answers already filled in.
O=C(c1ccccc1)c1c(C(=O)c2ccccc2)c(-c2ccccc2)c2c(-c3ccccc3)sc(-c3ccccc3)c2c1-c1ccccc1; inactive
CN(C)C(=S)N/N=C\C(=N/NC(=S)N(C)C)c1ccccc1; inactive
Nc1c(Cl)cc(-c2nc3ccccc3s2)cc1Cl; inactive
CC[P+]1(c2ccccc2)CCCCC1; inactive
COc1cc2c(cc1O)[C@@H]1Cc3c(cc(OC)c(OC)c3Oc3cc4c(cc3OC)CCN(C)[C@@H]4Cc3ccc(O)cc3)[C@H](C2)N1C; inactive
COc1ccc(-n2c(N)c(C#N)c(C#N)c2-c2ccco2)cc1; inactive

q: Called result for O=P1(Oc2ccc(Cl)cc2)OCCS1 (centres undefined)
a: inactive

q: Called result for "CCCCCCCCCCCCCS(=O)(=O)NCC(N)=O"
a: inactive

q: Called result for "Cc1nc2c(nc1C)-c1c(c3c(n1Cc1ccccc1)C(=O)CCC3)C(=O)C2=O"
a: inactive

q: Called result for COc1cc2c[n+]3c4c(c2c(OC)c1OC)CCCC4CC3 (centres undefined)
a: inactive

q: Called result for "COc1ccc(NC(=O)CC/C(CC(=O)c2ccco2)=N/Nc2ccc([N+](=O)[O-])cc2[N+](=O)[O-])cc1"
a: inactive

q: Called result for "N=C(N)NS(=O)(=O)c1ccc(NC(=O)c2cccc3c(N)c4ccccc4nc23)cc1"
a: inactive

q: Called result for "CCCCCCOc1ccc(C(=O)NOCc2ccccc2)cc1"
a: inactive

q: Called result for "COc1ccc2oc(=O)c(-c3nc4ccccc4o3)cc2c1"
a: inactive

q: Called result for "N#CCCN(CCC#N)c1ccc(/C=C2\N=C(c3ccccc3)N(NC(N)=S)C2=O)cc1"
a: inactive

q: Called result for CC1(C)CCCCCCCCCC2CC2CCC(C)(C)C1=O (centres undefined)
a: inactive

q: Called result for CN(C)CC1CCC/C(=C\c2ccc(N(C)C)cc2)C1=O (centres undefined)
a: inactive

q: Called result for Cc1c(N)nc([C@H](CC(N)=O)NC[C@H](N)C(N)=O)nc1C(=O)N[C@H](C(=O)N[C@H](C)[C@@H](O)[C@H](C)C(=O)N[C@H](C(=O)NCCc1nc(-c2nc(C(=O)NCCC[S+](C)C)cs2)cs1)[C@@H](C)O)C(OC1OC(CO)C(O)C(O)C1OC1OC(CO)C(O)C(OC(N)=O)C1O)c1c[nH]cn1 (some centres undefined)
a: active

q: Called result for "COc1ccccc1-c1nc[nH]c1-c1ccccc1OC"
a: inactive
